- Tested system: Hexose transporter 1 (Plasmodium falciparum) (UniProt O97467)
- Measurement protocol: ST_JUDE_LEISH: Cytotoxicity at 2uM final concentration against transgenic Leishmania Mexicana promastigotes LmPfHT that are glucose transport deficient and complemented with the Plasmodium falciparum hexose transporter. Activity is measured by DNA content using SYBR green in vitro
- Format: functional
Recorded inhibition for the following molecules
State just the number; it will be interpreted in %.

Answered cases to consult:
O=C(Nc1ccc(F)cc1)NC1CCN(c2ccnc3cc(Cl)ccc23)CC1 | 3.1
CCNc1cc(C(=O)N[C@@H](Cc2ccccc2)[C@H](O)CNCc2cc(OC)cc(OC)c2)cc(N2CCCC2=O)c1 | 9.03
CC(C)(CNC(=O)[C@@H]1CCCN(CCOc2ccc(Cl)cc2)C1)c1nc(-c2ccc(Cl)c(O)c2)c(-c2ccncc2)[nH]1 | 2.16
FC(F)(F)c1ccc2[nH]c(-c3ccc(-c4ccc(CNCCN5CCNCC5)cc4)cc3)nc2c1 | 0.13
CC(c1cccc(S(=O)(=O)NCc2ccc(Cl)cc2Cl)c1)N1CCC(N2CCCCC2)CC1 (centres undefined) | 4.33

Prompt: What measured inhibition goes with CCC(C)NCc1c(O)ccc2c(CNC(C)CC)c(O)ccc12 (centres undefined) ?
Completion: 3.63

Prompt: What measured inhibition goes with O=C(Cn1c2ccccc2c(=O)c2ccc(Cl)cc21)Nc1ccc(C(F)(F)F)cc1 ?
Completion: -1.32

Prompt: What measured inhibition goes with COc1ccc2nc(C)cc(Nc3ccc(Cl)c(Cl)c3)c2c1 ?
Completion: 14.2

Prompt: What measured inhibition goes with COc1ccc(CNCc2ccc(F)cc2)cc1-c1ccc(S(=O)(=O)NCCN2CCCC2)c(C)c1 ?
Completion: 3.53

Prompt: What measured inhibition goes with CCCCCCNC(=O)C1Cc2c([nH]c3cc(Cl)ccc23)C2(CCN(Cc3ccccc3)CC2)N1 (centres undefined) ?
Completion: 5.97

Prompt: What measured inhibition goes with COc1ccc(-n2ccnc2SCC(=O)Nc2cc(Cl)ccc2OC)c(OC)c1 ?
Completion: -0.3

Prompt: What measured inhibition goes with CSc1cccc(Nc2nc3ccc(S(=O)(=O)NC(C)C(C)C)cc3n2[C@H](C)C(C)(C)C)c1 (some centres undefined) ?
Completion: 6.18

Prompt: What measured inhibition goes with NS(=O)(=O)c1cccc(Nc2nccc(-c3c(-c4cccc(NC(=O)c5c(F)cccc5F)c4)nn4ccccc34)n2)c1 ?
Completion: 7.67

Prompt: What measured inhibition goes with CCCCCCCCNc1c2ccc(Cl)cc2nc2ccc(OC)cc12 ?
Completion: 7.51

Prompt: What measured inhibition goes with CN1CCN(Cc2cccc(-c3cc4nccc(Nc5ccc(Oc6ccccc6)cc5)c4cc3Cl)c2)CC1 ?
Completion: 0.9

Prompt: What measured inhibition goes with COc1ccc(-c2cccc(NC(=O)c3cccc(Cl)c3)c2)cc1CN1CCC(O)CC1 ?
Completion: 6.33

Prompt: What measured inhibition goes with O=C(/C=C/c1ccc(Cl)c(Cl)c1)NCCCCCCN1CCCN(C(=O)Nc2ccc(Cl)c(C(F)(F)F)c2)CC1 ?
Completion: 0.9

Prompt: What measured inhibition goes with Cc1cccc2nc(-c3cccc(-c4cccc(NC(=O)c5cnccc5C(F)(F)F)c4)c3)[nH]c12 ?
Completion: 0.6

Prompt: What measured inhibition goes with CC(C)Cc1nc2nc(N)nc(N)c2cc1C(C)C ?
Completion: 4.17

###

- Tested system: Glucose transporter (Leishmania mexicana) (UniProt O61059)
- Measurement protocol: ST_JUDE_LEISH: Cytotoxicity at 2uM final concentration against transgenic Leishmania Mexicana promastigotes LmGT2 that are glucose transport deficient and complemented with the L. Mexicana glucose transporter 2. Activity is measured by DNA content using SYBR green in vitro
- Assay type: functional
Recorded inhibition for the following compounds
State just the number; it will be interpreted in %.

Answered cases to consult:
COc1cc(F)c2ncc(Cl)c(CCN3CCC(NCc4ccc5c(c4)NC(=O)CO5)CC3)c2c1 | 2.39
CS(=O)(=O)Nc1ccc2[nH]cc(C3CCN(CCCCCNC(=O)/C=C/c4ccc(Cl)c(Cl)c4)CC3)c2c1 | 3.35
O=C(NCCCN1CCC(N2CCCCC2)CC1)c1ccc(N2CCOc3ccccc32)s1 | 3.19
Cc1cc(N(C)C2CCN(CC3CCCCC3)C2)nc(Nc2ccc(Cl)cc2)n1 (stereo not given) | 4.28
O=S(=O)(Nc1cc2c(cc1O)CCN(C1CCC1)CC2)c1ccc(Oc2ccc(F)cc2)cc1 | 0.51
O=C(Cc1ccccc1)NC1(c2ccccc2)CCN(CCc2c[nH]c3ccc(F)cc23)CC1 | -0.69
Cc1ccc2[nH]c3ccccc3c(=O)c2c1 | 1.77
Cc1nc2nc(N)nc(N)c2c(C)c1Cc1ccc(C(F)(F)F)cc1 | 28.9

Prompt: What measured inhibition goes with O=C(NCC1CCN(Cc2cccc(F)c2)C1)c1cc(-c2cccc(C(F)(F)F)c2)cs1 (stereo not given) ?
Completion: 2.59

Prompt: What measured inhibition goes with CC(CN1CCN(C)CC1)C(=O)Nc1ccc(-c2ccc(-c3nc4ccccc4[nH]3)cc2)cc1 (stereo not given) ?
Completion: 1.16

Prompt: What measured inhibition goes with CN(Cc1ccccc1)C(=O)CCNS(=O)(=O)c1cc(Br)cnc1N ?
Completion: 6.07

Prompt: What measured inhibition goes with COc1cc(Cc2cnc(N)nc2N)c2ccsc2c1OC ?
Completion: 1.58

###

- Tested system: Hexose transporter 1 (Plasmodium falciparum) (UniProt O97467)
- Measurement protocol: ST_JUDE_LEISH: Cytotoxicity at 2uM final concentration against transgenic Leishmania Mexicana promastigotes LmPfHT that are glucose transport deficient and complemented with the Plasmodium falciparum hexose transporter. Activity is measured by DNA content using SYBR green in vitro
- Type: functional
Reported endpoint: inhibition (%)
State just the number; it will be interpreted in %.

Answered cases to consult:
CCc1c(CCNCCCCCCNC(C)(C)Cc2ccc3c(c2CC)OCO3)ccc(OC)c1OC | 10.7
COc1cc(Cc2cnc(N)nc2N)cc(OC(C)C)c1OC | 0.72
CCCCCCN1CCC(NCc2ccc(C(F)(F)F)cc2)CC1 | 1.54

Prompt: What measured inhibition goes with COc1cc(C(=O)N2CCOC(CCN3CCC(c4ccc(Cl)cc4)CC3)(c3ccc(Cl)c(Cl)c3)C2)cc(OC)c1OC (stereo not drawn) ?
Completion: 11.2

Prompt: What measured inhibition goes with Cc1cc(N[C@@H](CC(C)C)C(=O)Nc2ccccc2)nc(NCC2CCCCC2)n1 ?
Completion: 9.8

Prompt: What measured inhibition goes with CC(C)COc1ccc(Cl)cc1Cc1ccc(-c2nc3ccc(Cl)cc3[nH]2)o1 ?
Completion: 2.55

Prompt: What measured inhibition goes with Cc1cc(Nc2ccc(O)cc2)nc2cc(O)ccc12 ?
Completion: 1.93

Prompt: What measured inhibition goes with N=C(N)c1ccc(Nc2nccc(Nc3nc(-c4ccccc4)cs3)n2)cc1 ?
Completion: 0.47

Prompt: What measured inhibition goes with CCOc1ccc(C(=O)Nc2cc3c(c(C(F)(F)F)c2)CCNC3)cc1Cl ?
Completion: 4.16

Prompt: What measured inhibition goes with CCN1CCN(c2cc(C)c3cc(NC(=O)c4cncc(Br)c4)ccc3n2)CC1 ?
Completion: -1.3

###

Recorded inhibition for the following compounds
- Tested system: Solute carrier family 2, facilitated glucose transporter member 1 (Homo sapiens)
- Measurement protocol: ST_JUDE_LEISH: Cytotoxicity at 2uM final concentration against transgenic Leishmania Mexicana promastigotes LmGLUT1 that are glucose transport deficient and complemented with the human glucose transporter GLUT1. Activity is measured by DNA content using SYBR green in vitro
- Format: functional
State just the number; it will be interpreted in %.

O=C(N[C@@H](Cc1ccccc1)CN1CCC(Oc2ccc(F)cc2)CC1)c1ccc(OCCCN2CCCCC2)cc1 | 30.5

Prompt: What measured inhibition goes with Cc1ccc(O)c(CN2CCCC(COC(c3ccc(F)cc3)c3ccc(F)cc3)C2)c1 (centres undefined) ?
Completion: 2.33

Prompt: What measured inhibition goes with Oc1cc2ccccc2cc1CNC1CCCCC1 ?
Completion: 1.31

Prompt: What measured inhibition goes with Cc1cccc2nc(-c3ccc(-c4cccc(NC(=O)NCc5cccc(F)c5)c4)cc3)[nH]c12 ?
Completion: -0.32

Prompt: What measured inhibition goes with Cc1cc(Oc2ccc(-n3ccnc3)cc2)nc(N2CCN(CCCN3CCCC3)CC2)n1 ?
Completion: 4

Prompt: What measured inhibition goes with O=C(NCC1CCC(C(=O)O)CC1)c1ccc(/C=C/C(=O)N2CCc3ccccc3C2c2ccc3c(c2)OCO3)cc1 (centres undefined) ?
Completion: -0.02

###

Recorded inhibition for the following molecules
- Tested system: Solute carrier family 2, facilitated glucose transporter member 1 (Homo sapiens) (UniProt P11166)
- Sequence (P11166 whole entry): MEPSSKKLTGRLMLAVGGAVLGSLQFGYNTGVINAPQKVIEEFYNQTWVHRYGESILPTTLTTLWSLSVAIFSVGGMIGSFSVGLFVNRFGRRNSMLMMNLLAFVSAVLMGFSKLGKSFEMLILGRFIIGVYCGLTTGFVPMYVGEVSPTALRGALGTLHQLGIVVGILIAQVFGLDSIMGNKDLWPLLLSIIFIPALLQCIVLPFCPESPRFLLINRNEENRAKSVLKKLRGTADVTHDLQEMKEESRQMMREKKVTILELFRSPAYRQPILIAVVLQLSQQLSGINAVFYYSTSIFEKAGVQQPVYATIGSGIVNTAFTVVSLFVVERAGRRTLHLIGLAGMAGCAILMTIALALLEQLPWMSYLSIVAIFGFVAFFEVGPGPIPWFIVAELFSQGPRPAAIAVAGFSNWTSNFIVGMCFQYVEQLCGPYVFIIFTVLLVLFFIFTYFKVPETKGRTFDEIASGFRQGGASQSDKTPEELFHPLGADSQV
- Measurement protocol: ST_JUDE_LEISH: Cytotoxicity at 2uM final concentration against transgenic Leishmania Mexicana promastigotes LmGLUT1 that are glucose transport deficient and complemented with the human glucose transporter GLUT1. Activity is measured by DNA content using SYBR green in vitro
- Assay type: functional
State just the number; it will be interpreted in %.

Answered cases to consult:
CCOc1cc(C(=O)Nc2ccc3nc(N4CCCCC4)cc(C)c3c2)cc(OCC)c1OCC | 4.92
Fc1ccc2[nH]c(-c3cccc(-c4cccc(CN5CCN(c6cnccn6)CC5)c4)c3)nc2c1 | 7.08
COC(=O)c1cccc(CNCc2ccc(-c3cccc(-c4nc5cccc(C)c5[nH]4)c3)cc2)c1 | -0.37
Cc1cc(Nc2ccc(O)cc2)nc2cccc(O)c12 | 2.06

Let us move to another entry and its inhibition.
Prompt: What measured inhibition goes with N=C(N)Nc1nc(-c2cccc(NC(=O)CCCCCCCON3C(N)=NC(N)=NC34CCCCC4)c2)cs1 ?
Completion: 2.45
